- system.tested: IκBα ubiquitinating enzyme (SCF complex: ROC1, Cullin1, Skp1, His-TrCP1; with E1, UbcH5b) (Homo sapiens, UniProt P62877+P63208+Q13616+Q9Y297)
- Construct: His (polyhistidine); made in house; host or cells: insect cells (baculovirus) for the SCF complex and His-E1; E. coli for His-UBCH5b
- Sequence (Q9Y297 whole entry): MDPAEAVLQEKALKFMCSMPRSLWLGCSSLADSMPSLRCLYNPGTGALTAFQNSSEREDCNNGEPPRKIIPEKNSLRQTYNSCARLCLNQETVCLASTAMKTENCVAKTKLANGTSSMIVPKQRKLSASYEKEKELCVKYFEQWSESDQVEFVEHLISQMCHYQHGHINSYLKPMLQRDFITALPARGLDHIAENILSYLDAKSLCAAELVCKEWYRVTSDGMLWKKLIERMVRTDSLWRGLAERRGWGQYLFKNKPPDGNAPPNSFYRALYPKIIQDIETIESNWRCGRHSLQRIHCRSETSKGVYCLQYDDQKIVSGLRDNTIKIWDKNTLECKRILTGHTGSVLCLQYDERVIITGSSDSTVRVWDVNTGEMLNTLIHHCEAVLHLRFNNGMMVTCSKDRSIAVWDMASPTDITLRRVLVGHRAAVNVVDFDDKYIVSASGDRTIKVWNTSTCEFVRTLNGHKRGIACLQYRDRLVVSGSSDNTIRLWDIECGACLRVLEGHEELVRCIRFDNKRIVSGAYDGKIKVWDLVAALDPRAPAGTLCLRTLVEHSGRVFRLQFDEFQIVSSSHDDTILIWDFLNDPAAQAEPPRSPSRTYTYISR
- Sequence (Q13616 whole entry): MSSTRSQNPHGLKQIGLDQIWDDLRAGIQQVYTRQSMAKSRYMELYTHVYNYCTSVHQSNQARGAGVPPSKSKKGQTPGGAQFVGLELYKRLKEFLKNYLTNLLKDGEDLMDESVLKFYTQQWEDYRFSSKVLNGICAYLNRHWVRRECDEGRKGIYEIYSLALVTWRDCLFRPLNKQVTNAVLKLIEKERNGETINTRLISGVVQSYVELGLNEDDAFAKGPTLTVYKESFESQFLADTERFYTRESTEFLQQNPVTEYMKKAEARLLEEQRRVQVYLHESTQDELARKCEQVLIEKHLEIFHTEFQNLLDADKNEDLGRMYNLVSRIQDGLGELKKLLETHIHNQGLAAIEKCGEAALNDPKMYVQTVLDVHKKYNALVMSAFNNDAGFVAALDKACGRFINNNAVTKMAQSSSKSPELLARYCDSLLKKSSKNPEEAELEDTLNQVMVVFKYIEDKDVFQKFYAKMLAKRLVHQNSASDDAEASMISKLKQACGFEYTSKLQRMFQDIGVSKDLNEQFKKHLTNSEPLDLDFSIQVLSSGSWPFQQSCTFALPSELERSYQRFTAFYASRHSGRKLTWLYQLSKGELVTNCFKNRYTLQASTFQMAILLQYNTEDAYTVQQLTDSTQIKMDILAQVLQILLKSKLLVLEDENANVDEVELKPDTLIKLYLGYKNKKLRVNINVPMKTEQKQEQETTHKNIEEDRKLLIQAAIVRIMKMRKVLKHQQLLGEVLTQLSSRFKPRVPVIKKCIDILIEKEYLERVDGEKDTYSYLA
- Sequence (P63208 whole entry): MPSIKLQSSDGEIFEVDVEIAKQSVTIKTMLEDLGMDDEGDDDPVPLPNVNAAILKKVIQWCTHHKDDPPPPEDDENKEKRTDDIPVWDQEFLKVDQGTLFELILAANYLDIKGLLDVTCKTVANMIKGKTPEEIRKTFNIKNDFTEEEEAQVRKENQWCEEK
- Sequence (P62877 whole entry): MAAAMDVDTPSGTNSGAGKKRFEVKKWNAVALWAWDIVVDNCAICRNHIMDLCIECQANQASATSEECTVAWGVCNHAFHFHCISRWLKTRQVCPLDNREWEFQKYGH
- measurement.description: Measurement of ubiquitinating enzyme activity (IκBα ubiquitination, time-resolved fluorescence with Eu(K)-labeled ubiquitin and XL665-labeled anti-GST antibody)
- Type: biochemical
- setup.conditions: enzyme activity inhibition test, method (1), Table 5; read-out: EVALUATION
property.measured: IC50

> print(dat)
                                   molecule  result.value
1  CC1=NN(c2cccc(C(=O)O)c2)C(=O)/C1=C\c1ccc(N2CCNCC2)cc1 [Compound 452]       < 10 µM
2  CC1=NN(c2cccc(C(=O)O)c2)C(=O)/C1=C\c1ccc2c(ccn2CC2CC2)c1 [Compound 499]       < 10 µM

Now consider a different molecule.
Input line: Field request: IC50 | item: O=C(O)c1ccc(N2N=C(Cc3ccccc3)/C(=C/c3ccc(-n4cccn4)cc3)C2=O)cc1 [Compound 275]
Output line: 10 to 20 µM

====

- system.tested: IκBα ubiquitinating enzyme (SCF complex: ROC1, Cullin1, Skp1, His-TrCP1; with E1, UbcH5b) (Homo sapiens, UniProt P62877+P63208+Q13616+Q9Y297)
- Construct: His (polyhistidine); made in house; host or cells: insect cells (baculovirus) for the SCF complex and His-E1; E. coli for His-UBCH5b
- measurement.description: Measurement of ubiquitinating enzyme activity (IκBα ubiquitination, time-resolved fluorescence with Eu(K)-labeled ubiquitin and XL665-labeled anti-GST antibody)
- Format: biochemical
pIC50: −log10 of the molar value.
property.measured: pIC50

Consider the following illustrative entries.
> print(dat)
                                   compound  property.measured  result.value
1  CC1=NN(c2ccc(C(=O)O)cc2)C(=O)C1=Cc1ccc2[nH]ccc2c1 [Compound 349]              pIC50        > 5.00
2  CC1=NN(c2cccc(S(N)(=O)=O)c2)C(=O)C1=Cc1ccc(N2CCN(C(=O)OC(C)(C)C)CC2)cc1 [Compound 180]              pIC50  4.70 to 5.00
3  CC1=NN(c2ccc(C(=O)O)cc2)C(=O)C1=Cc1ccc(OCCCN(C)C)cc1 [Compound 543]              pIC50        > 5.00
4  CCCCC1=NN(c2ccc(C(=O)O)cc2)C(=O)C1=Cc1ccc2c(c1)OCO2 [Compound 480]              pIC50        > 5.00
5  COc1ccc(C(=O)Nc2ccc(C=C3C(=O)N(c4ccc(S(N)(=O)=O)cc4)N=C3C)cc2)cc1 [Compound 229]              pIC50        > 5.00
6  CC1=NN(c2ccc(C(=O)O)cc2)C(=O)C1=Cc1ccc(OCC(=O)N(C)C)cc1 [Compound 535]              pIC50  4.70 to 5.00
7  COc1ccccc1C(=O)Nc1ccc(C=C2C(=O)N(c3ccc(S(N)(=O)=O)cc3)N=C2C)cc1 [Compound 228]              pIC50        > 5.00

Turning now to a further compound:
Input line: # pIC50 lookup, item CC1=NN(c2ccc(S(N)(=O)=O)cc2)C(=O)C1=Cc1ccc(NC(=O)c2ccc3ccccc3c2)cc1 [Compound 227]
Output line: > 5.00
